# tgt: recombinant human TFPI (tissue factor pathway inhibitor) (human, UniProt P10646 29-304)
# assay name: cell-based or functional assay
Measured % of Normalized, TF/FVIIa/FX complex assay (FX 5 nM), Ab 12.5 nM of individual entries
Provide only the numeric value, understood in %.

These solved cases illustrate the format of a correct answer.
binder="clone 3 (antibody, V domains shown) VH: EVQLVESGGGLVKPGGSLRLSCAASGFTFSSYAMNWVRQAPGKGLEWVGTITTGGSHTYYADSVDGRFTISRDNAKNSLYLQMNSLRAEDTAVYYCARQDGNFLMDYWGQGTLVTVSS VL: DVVMTQTPLSLPVTLGQPASISCKSSPSLLDVDGKTYLNWLQQRPGQSPKRLIYLVSKLDSGVPDRFTGSGSGTDFTLKISRVEAEDVGVYYCWQGTHFPFTFGQGTKVEIKR" readout_unit=% number=17.4
binder="clone 1023 (antibody, V domains shown, scFv on yeast at selection; human IgG4/kappa IgG as purified) VH: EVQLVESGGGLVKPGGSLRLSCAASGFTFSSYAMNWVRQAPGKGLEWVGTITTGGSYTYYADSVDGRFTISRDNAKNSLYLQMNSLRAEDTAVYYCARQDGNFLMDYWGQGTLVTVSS VL: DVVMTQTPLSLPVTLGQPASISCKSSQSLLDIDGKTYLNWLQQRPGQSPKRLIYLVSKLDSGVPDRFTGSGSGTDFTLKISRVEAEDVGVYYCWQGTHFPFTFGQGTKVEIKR" readout_unit=% number=9.7
binder="clone 2 (antibody, V domains shown) VH: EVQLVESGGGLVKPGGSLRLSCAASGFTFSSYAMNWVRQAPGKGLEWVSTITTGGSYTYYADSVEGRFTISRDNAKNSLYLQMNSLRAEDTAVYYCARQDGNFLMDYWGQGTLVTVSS VL: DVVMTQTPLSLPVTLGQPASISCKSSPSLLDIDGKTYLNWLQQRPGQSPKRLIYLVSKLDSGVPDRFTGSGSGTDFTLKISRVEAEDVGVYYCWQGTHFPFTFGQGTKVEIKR" readout_unit=% number=10.3

Value lookup for % of Normalized, TF/FVIIa/FX complex assay (FX 5 nM), Ab 12.5 nM; key = clone 8 (antibody, V domains shown) VH: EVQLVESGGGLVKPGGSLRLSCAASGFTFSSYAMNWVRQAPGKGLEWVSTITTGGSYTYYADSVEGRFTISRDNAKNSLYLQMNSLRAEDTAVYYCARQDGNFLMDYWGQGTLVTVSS VL: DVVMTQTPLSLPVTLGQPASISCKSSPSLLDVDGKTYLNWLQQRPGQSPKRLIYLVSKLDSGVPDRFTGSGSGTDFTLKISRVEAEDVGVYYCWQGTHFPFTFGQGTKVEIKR
10.8
